- Measurement Target: Proteinase-activated receptor 2 (Homo sapiens)
- Assay Method Text: Agonist activity at PAR2 in human HT-29 cells assessed as increase in intracellular calcium release at 10 uM incubated for 30 mins measured for 60 secs by Fluo-3 AM dye based FLIPR assay relative to 2f-LIGRLO-NH2
- Assay type: functional, cell-based
Outcome Measure: Activity (%)

• CC[C@H](C)[C@H](NC(=O)[C@H](CC1CCCCC1)NC(=O)c1cc(N)n[nH]1)C(=O)N1CCC2(C=Cc3ccccc32)CC1 = 26

[1] CC[C@H](C)[C@H](NC(=O)[C@H](CC1CCCCC1)NC(=O)c1ccon1)C(=O)N1CCC2(C=Cc3ccccc32)CC1
[2] CC[C@H](C)[C@H](NC(=O)[C@H](CC1CCCCC1)NC(=O)c1ccno1)C(=O)N1CCC(NC(C)=O)(c2ccccc2)CC1
In: Of 1 versus 2 , which is the one with smaller reported Activity? Let me know the label of the one you choose.
Out: 1

---

- Assay Method Text: Elimination half life in Wistar rat liver homogenate at 10 uM by LC/MS/MS analysis
- Assay type: ADME, tissue-based
- Run Conditions: read-out: beta t1/2
Where a SMILES comes first, the peptide text is derived from it.
Outcome Measure: half-life at 10 µM (min)

Solved entries (count: 2):
• CC[C@H](C)[C@H](NC(=O)[C@H](CC1CCCCC1)NC(=O)c1cc(N)no1)C(=O)N1CCC2(C=Cc3ccccc32)CC1 = 15
• CC[C@H](C)[C@H](NC(=O)[C@H](CC(C)C)NC(=O)[C@@H](N)CO)C(=O)NCC(=O)N[C@@H](CCCNC(=N)N)C(=O)N[C@@H](CC(C)C)C(N)=O (H-SLIGRL-NH2) = 15

[1] CC[C@H](C)[C@H](NC(=O)[C@H](CC1CCCCC1)NC(=O)c1ccno1)C(=O)N1CCC2(C=Cc3ccccc32)CC1
[2] CC[C@H](C)[C@H](NC(=O)[C@H](CC1CCCCC1)NC(=O)c1ccno1)C(=O)N1CCC(c2ccccc2)CC1
In: Of 1 and 2 , whose reported half-life at 10 µM is the larger number? Please indicate the selected item by its label.
Out: 1

---

- Measurement Target: Proteinase-activated receptor 2 (Homo sapiens)
- Assay Method Text: Antagonist activity at PAR2 in human HT-29 cells assessed as inhibition of 2f-LIGRLO-NH2-stimulated intracellular calcium release at 10 uM preincubated for 30 mins followed by 2f-LIGRLO-NH2 stimulation measured for 60 secs by Fluo-3 AM dye based FLIPR assay relative to control
- Assay type: functional, cell-based
Outcome Measure: inhibition

• CC(C)(C)[C@H](NC(=O)[C@H](CC1CCCCC1)NC(=O)c1ccno1)C(=O)N1CCC2(C=Cc3ccccc32)CC1 = 10 to 16%
• CC(C)(NC(=O)[C@H](CC1CCCCC1)NC(=O)c1ccno1)C(=O)N1CCC2(C=Cc3ccccc32)CC1 = 10 to 16%
• CC[C@H](C)[C@H](NC(=O)[C@H](CC1CCCCC1)NC(=O)c1ccno1)C(=O)N1CCC(c2ccc(Cl)cc2)CC1 = 43 to 69%
• CC[C@H](C)[C@H](NC(=O)[C@H](CC1CCCCC1)NC(=O)c1ccno1)C(=O)N1CCC(c2ccccc2C(F)(F)F)CC1 = 43 to 69%

In: Fill blank: measured inhibition of the compound `CC[C@H](C)[C@H](NC(=O)[C@H](CC1CCCCC1)NC(=O)c1ccno1)C(=O)N1CCC(c2ccc(OC)cc2)CC1` is ____.
Out: 43 to 69%

---

- Measurement Target: Proteinase-activated receptor 2 (Homo sapiens) (UniProt P55085)
- Sequence (P55085 whole entry): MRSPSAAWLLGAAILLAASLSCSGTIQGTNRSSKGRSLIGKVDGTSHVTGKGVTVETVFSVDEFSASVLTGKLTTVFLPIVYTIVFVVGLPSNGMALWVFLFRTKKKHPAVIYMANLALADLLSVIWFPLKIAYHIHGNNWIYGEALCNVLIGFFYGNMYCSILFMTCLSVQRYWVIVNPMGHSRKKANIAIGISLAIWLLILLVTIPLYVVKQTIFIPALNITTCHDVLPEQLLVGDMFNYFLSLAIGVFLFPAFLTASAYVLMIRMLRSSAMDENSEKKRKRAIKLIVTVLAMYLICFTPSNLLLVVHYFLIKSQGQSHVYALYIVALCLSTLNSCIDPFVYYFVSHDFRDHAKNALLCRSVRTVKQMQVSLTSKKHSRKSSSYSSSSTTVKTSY
- Assay Method Text: Agonist activity at PAR2 in human HT-29 cells assessed as increase in intracellular calcium release at 10 uM incubated for 30 mins measured for 60 secs by Fluo-3 AM dye based FLIPR assay relative to 2f-LIGRLO-NH2
- Format: functional, cell-based
Activity values for the molecules below.

- CO[C@H](C)[C@H](NC(=O)[C@H](CC1CCCCC1)NC(=O)c1ccno1)C(=O)N1CCC2(C=Cc3ccccc32)CC1: 53 to 81%
- CC[C@H](C)[C@H](NC(=O)[C@H](CC1CCCCC1)NC(=O)c1ccno1)C(=O)N1CCC2(CC1)OC(=O)c1ccccc12: 62 to 70%
- CC[C@H](C)[C@H](NC(=O)[C@H](CC1CCCCC1)NC(=O)c1ccno1)C(=O)N1CCN(c2ccccc2)CC1: 30 to 50%

Kindly review the next molecule as well.
In: Form field: Activity recorded for `CC[C@H](C)[C@H](NC(=O)[C@H](CC1CCCCC1)NC(=O)c1ccno1)C(=O)N1CCN(Cc2ccc(F)cc2)CC1` with Proteinase-activated receptor 2 (Homo sapiens) (UniProt P55085) (enter value)
Out: 30 to 50%

These entries and their values trace back to ChEMBL document CHEMBL3865852.
